test: TROY pathway blockers in reporter cells – Q293 LMP1-TROYcd cells, NF-kB luciferase, uHTS, primary screen (AID 1347056); settings: 4 h, at 10 µM
In all, about 360,000 compounds went through this assay and about 3,600 (1%) were called active.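 The calls were made as follows: active = compounds whose plate-normalised and pattern-corrected inhibition of the luciferase reporter signal at the single screening dose is 50% or more; inactive = the rest.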 What follows is part of a selection rich in actives, with near analogues and random picks from the rest.
API: response.call in active, inactive

query: Would you mind telling me which call this test gave `COc1cccc(NC(=O)c2ccc3c(SCC(=O)O)c4c(nc3c2)CCCC4)c1` ?
result: inactive

query: Would you mind telling me which call this test gave `CS(=O)(=O)N(CC(=O)N1CCN(Cc2ccccc2)CC1)c1ccc2c(c1)OCCO2` ?
result: inactive

query: Would you mind telling me which call this test gave `COc1ccc2c(c1)c(=Cc1ccc(N(C)C)cc1)c1cc(-c3ccccc3)[n+](C)n12` ?
result: active

query: Would you mind telling me which call this test gave `CSc1nc(N(C)NC(=O)c2cccc(C)c2)c2ccccc2n1` ?
result: inactive

query: Would you mind telling me which call this test gave O=C(NCc1ccc(F)cc1)c1cc(C2CCCCN2C(=O)c2cccs2)on1 (stereo not given) ?
result: inactive

query: Would you mind telling me which call this test gave `Cc1cc(Cl)c(S(=O)(=O)Nc2ccc3c(c2)OCCO3)cc1OCC(N)=O` ?
result: active

query: Would you mind telling me which call this test gave `CCNc1nc(NC(C)C)nc(N2CC(=O)N(CC(=O)OCC)C2=N)n1` ?
result: inactive

query: Would you mind telling me which call this test gave `Cc1cc(C)c(NC(=O)CN2CCOCCOCCOCCOCC2)c(C)c1` ?
result: inactive

query: Would you mind telling me which call this test gave `O=C(C1CCN(c2nnc(-n3cccc3)s2)CC1)N1CCc2ccccc2C1` ?
result: inactive

query: Would you mind telling me which call this test gave CCCn1c(C(Cc2ccccc2)NC(=O)COC)nc2ccccc21 (stereo not given) ?
result: inactive

* * *

assay: TROY pathway blockers in reporter cells – Q293 LMP1-TROYcd cells, NF-kB luciferase, uHTS, primary screen (AID 1347056); conditions: 4 h, at 10 µM, hits give high values
In all, about 360,000 compounds went through this assay and about 3,600 (1%) were called active. The sample holds actives, similar compounds and a random draw of the others, so the mix is not that of the screen.
endpoint: inhibition (%)
// return numeric value only (unit: %, not printed)

For reference, reported inhibition for `CCCCOc1ccc(CON(C(C)=O)C(C)=O)cc1Cl` stands at -35.4

For reference, reported inhibition for `N#Cc1c(NC(=O)CCCN2C(=O)c3ccccc3C2=O)oc(-c2ccccc2)c1-c1ccccc1` stands at -11.3

For reference, reported inhibition for `CC(=O)Nc1cccc(-c2cc(NC=O)c3ncc(-c4ccc(F)c(Cl)c4)n3c2)c1` stands at 83.1

For reference, reported inhibition for `CCOC(=O)c1ccc(NC(=S)N2CCN(c3ccccn3)CC2)cc1` stands at -15.3

For reference, reported inhibition for `S=C(NCCCc1cnc[nH]1)NCCCN(Cc1ccc(Cl)c(Cl)c1)c1ccc(Br)cn1` stands at 8.84

For reference, reported inhibition for `COc1cccc(OCc2cc(/C=N/NC(=O)c3nc(Cl)c(Cl)c(N)c3Cl)ccc2OC)c1` stands at 11.1

For reference, reported inhibition for `COc1cccc(-c2cnc3c(NC(C)=O)cc(-c4cccc(NC(C)=O)c4)cn23)c1` stands at 12.8

For reference, reported inhibition for C=CCSc1nc2c(c(=O)[nH]1)C(C(C)C)C(C#N)=C(N)O2 (stereo unspecified) stands at 9.46

For reference, reported inhibition for `CC(=O)c1cccc(-c2cnc3c(NC=O)cc(-c4cccc(C(=O)N(C)C)c4)cn23)c1` stands at -8.12

For reference, reported inhibition for Cc1ccc(SC(CC(=O)c2ccc(C(C)(C)C)cc2)C(=O)O)cc1 (stereo unspecified) stands at 14.6

For reference, reported inhibition for COc1cccc(NC(=O)C(Sc2nc3ccccc3c(=O)n2CC(C)C)c2ccccc2)c1 (stereo unspecified) stands at -17.8

For reference, reported inhibition for `CCCN(CCC)CCNC(=O)c1cc2c(C)nc3ccccc3c2o1` stands at -8.54

For reference, reported inhibition for `CCOc1cccc(/C=C/c2ccc3ccccc3n2)c1OC(C)=O` stands at 33.9

For reference, reported inhibition for CCOC(=O)C1CCCN(C(=O)c2ccc(C)c(F)c2)CC1 (stereo unspecified) stands at 1.56

For reference, reported inhibition for CC(=O)c1ccc(NC(=O)C(C)OC(=O)c2ccc(NS(=O)(=O)c3ccc4[nH]c(=O)[nH]c4c3)cc2)cc1 (stereo unspecified) stands at -12.5

For reference, reported inhibition for CCC1=[N+]([O-])C(C)(/C(C)=N\O)N(O)C1(C)C (stereo unspecified) stands at -4.1

For reference, reported inhibition for `Oc1c(Cl)cc(Cl)c(Cl)c1Cc1c(O)c(Cl)cc(Cl)c1Cl` stands at 80.3

For reference, reported inhibition for `Cc1cccc(-c2nnc(SCC(=O)O)n2Cc2ccccc2)c1` stands at -6.32

For reference, reported inhibition for `COc1cccc(-c2cc(NC(C)=O)c3ncc(-c4cccc(C(C)=O)c4)n3c2)c1` stands at 12.8

For reference, reported inhibition for `COC(=O)CSc1snnc1-c1ccc(Cl)c(Cl)c1` stands at -45.5

For reference, reported inhibition for `Cc1ccc(S(=O)(=O)N(C)CC(=O)OCC(=O)Nc2ccccc2)cc1` stands at -10.3
